Provenance of the data: patent US12495798B2

System: rice
methodNotes: Phytotoxicity test for upland field crops (foliar treatment test)
Format: in vivo
measurementParameters: 50 g ai/ha, Rice (7 days after treatment)
readout: Foliar treatment phytotoxicity, Rice
Just the number, please, no unit after it.

Example cases with answers are listed next.
[
  {
    "inputSmiles": "Cn1nc(COCc2nc(C(F)(F)F)ccc2C(=O)Nc2nnnn2C)nc1Cl",
    "measurementTarget": "rice",
    "Foliar treatment phytotoxicity, Rice": 3
  },
  {
    "inputSmiles": "Cn1nnc(COCc2nc(C(F)F)ccc2C(=O)Nc2nnnn2C)n1",
    "measurementTarget": "rice",
    "Foliar treatment phytotoxicity, Rice": 6
  },
  {
    "inputSmiles": "CON(Cc1nnn(C)n1)c1nc(C(F)(F)F)ccc1C(=O)Nc1nnnn1C",
    "measurementTarget": "rice",
    "Foliar treatment phytotoxicity, Rice": 3
  }
]

Proceeding to the next compound to report its Foliar treatment phytotoxicity, Rice.
What does the data say about its Foliar treatment phytotoxicity, Rice? Entry: Cn1nnc(COCc2nc(C(F)(F)C(F)(F)F)ccc2C(=O)Nc2nnnn2C)n1
5
